Test: chemical genetic growth profiling, strain panel (AID 1159580);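 note: tested at 20 µM; growth read once vehicle control cultures reached saturation at 30 °C; 1 = growth at the plate median or of vehicle wells; lower values mean less growth of the strain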
Details: S. cerevisiae deletion strains, growth OD, locus YDL192W, strain arf1
About 2,000 (36%) of roughly 5,500 compounds were called active. Another 18% or so got no clear call; they are omitted. Cut-off read from the data, not from the text of the source: active = normalized growth mostly below about 0.91 (no sharp cut-off); inconclusive = no clear call, values can overlap the other calls; inactive = mostly above about 0.92. The list shows a part of the results. Where a SMILES comes first, the peptide text is derived from it. The star is where a group is joined. For = O=C*
One label from this list, please: 1 (yes) = active, 0 (no) = inactive

compound: C#C[C@]1(O)CCC2C3CCC4=CC(=O)CC[C@@H]4C3CC[C@@]21CC (stereo partly drawn)
answer label: 0 (no)

compound: C[C@@H]1CC[C@]2(C(=O)O)CC[C@]3(C)C(=CCC4[C@@]5(C)CC[C@H](O)C(C)(C)C5CC[C@]43C)C2[C@H]1C (stereo partly drawn)
answer label: 0 (no)

compound: CCOP(=S)(OCC)Oc1cc(C)nc(C(C)C)n1
answer label: 0 (no)

compound: CC1(C)CC[C@@]2(C(=O)O)C(C1)C1=CCC3[C@@]4(C)CC[C@H](O)C(C)(C)C4CC[C@@]3(C)[C@]1(C)C[C@@H]2O (stereo partly drawn)
answer label: 0 (no)

compound: OC(CCN1CCCCC1)(c1ccccc1)C1CCCCC1 (stereo not drawn)
answer label: 0 (no)

compound: COc1cc(N)c(Cl)cc1C(=O)NC1CCN(Cc2ccccc2)CC1
answer label: 0 (no)

compound: NC(Cc1c[nH]c2ccccc12)C(=O)O (stereo not drawn)
answer label: 0 (no)

compound: CC1C(=O)OC2C1CCC1(C)C=CC(=O)C3(C)OC213 (stereo not drawn)
answer label: 0 (no)

compound: CCOP(=S)(OCC)Oc1nc(Cl)c(Cl)cc1Cl
answer label: 0 (no)

compound: C[C@@H]1CC[C@H]2[C@@H](C)C(O)O[C@@H]3O[C@@]4(C)CC[C@@H]1[C@]32OO4 (stereo partly drawn)
answer label: 1 (yes)

Query: Which outcome was entered for the compound CSCCC(NC=O)C(=O)NC(Cc1ccccc1)C(=O)O (stereo not drawn) (For-Met-Phe-OH; configuration not given here) in this test?
Response: 0 (no)

Query: Which result was noted for this compound in the test: `C[C@@H]1C(=O)O[C@H]2[C@H]1CC[C@@]1(C)C=CC(=O)[C@@]3(C)O[C@@]213`
Response: 0 (no)

Query: I would be grateful if you could indicate the recorded call for C#C[C@]1(OC(C)=O)CCC2C3CCC4=CC(=O)CC[C@@H]4C3CC[C@@]21C (stereo partly drawn) .
Response: 0 (no)
